pKi: −log10 of the molar value.
Below: compounds with pKi recorded for Adenosine receptor A1 (Rattus norvegicus) in separate published works.
reported.metric: pKi

# compound, reported.metric, modifier.sign, reported.value
data = [
    ("Nc1nc(C#CC(O)(c2ccccc2)C(F)(F)F)cn2nc(-c3ccco3)nc12 (centres undefined)", "pKi", "=", 5.66),
    ("Cn1c(=O)c2c(nc3n2CCCN3CCc2c[nH]c3ccccc23)n(C)c1=O", "pKi", "=", 4.60),
    ("Cc1c(C)n([C@H](C)c2ccccc2)c2nc(-c3ccccc3O)nc(N)c12", "pKi", "=", 6.62),
    ("COc1ccccc1NC(=O)Nc1nc(-c2ccccc2)nc2ccccc12", "pKi", "=", 5.41),
    ("NC[C@H]1CC[C@H]2CN(c3cc4nc(-c5ccco5)nn4c(N)n3)CCN2C1", "pKi", "<", 6.30),
    ("Cn1cnc2c(N)nc(Cl)nc21", "pKi", "=", 4.64),
    ("O=C(CCCCC1SCC2NC(=O)NC21)NCCNC(=O)Cc1ccc(NC(=O)Cc2ccc(Nc3ncnc4c3ncn4C3O[C@H](CO)[C@@H](O)[C@H]3O)cc2)cc1 (some centres undefined)", "pKi", "=", 7.94),
    ("CCNC(=O)[C@H]1O[C@@H](n2cnc3c(N)ccnc32)[C@H](O)[C@@H]1O", "pKi", "=", 7.29),
    ("O=C(CCCc1ccccc1)Nc1nc2ccsc2c(=O)s1", "pKi", "≤", 5.00),
    ("Nc1nc(NC[C@H]2CCCN2Cc2cc(C(F)(F)F)ccc2F)nc2nc(-c3ccco3)nn12", "pKi", "<", 6.60),
    ("CCO/C(O)=C1\\C(C)=NC(c2ccccc2)=C(C(=O)OCc2ccc([N+](=O)[O-])cc2)C1C#Cc1ccccc1 (centres undefined)", "pKi", "<", 4.00),
    ("O=C(Nc1nc(-c2ccccc2)nc2c1nnn2Cc1ccccc1)C1CCCC1", "pKi", "=", 8.60),
    ("Cc1c(C)n([C@H](C)c2ccccc2)c2nc(-c3ccccc3Cl)nc(N)c12", "pKi", "=", 8.02),
    ("CCOC(=O)c1sc(SC)c2c1CCCC2=O", "pKi", "=", 5.71),
    ("CCCCn1c(=O)c2c(ncn2[C@H]2[C@H](O)[C@H](O)[C@]3(CO)C[C@H]23)n(CCCC)c1=O", "pKi", "=", 5.53),
    ("C[C@@H](NC(=O)OC(C)(C)C)C(=O)Nc1nc2ccc(Cl)cc2c2nc(-c3ccco3)nn12", "pKi", "=", 7.31),
    ("Nc1nc(N2CCN3C[C@H](CN(Cc4cccnc4)Cc4cccnc4)CC[C@H]3C2)nc2nc(-c3ccco3)nn12", "pKi", "=", 5.11),
    ("CCNC(=O)[C@H]1O[C@@H](n2cnc3c(N)[n+](Cc4ccccc4[N+](=O)[O-])cnc32)[C@H](O)[C@@H]1[O-]", "pKi", "=", 6.71),
    ("CCCn1c(=O)c2c(nc3n2CCCN3CCc2ccc(OCC(=O)NCc3ccc(F)cc3)cc2)n(CCC)c1=O", "pKi", "<", 5.00),
]
